biological target: Prostaglandin G/H synthase 1 (Homo sapiens, UniProt P23219); assay: Inhibition of COX1 in human whole blood
Sequence (P23219 whole entry): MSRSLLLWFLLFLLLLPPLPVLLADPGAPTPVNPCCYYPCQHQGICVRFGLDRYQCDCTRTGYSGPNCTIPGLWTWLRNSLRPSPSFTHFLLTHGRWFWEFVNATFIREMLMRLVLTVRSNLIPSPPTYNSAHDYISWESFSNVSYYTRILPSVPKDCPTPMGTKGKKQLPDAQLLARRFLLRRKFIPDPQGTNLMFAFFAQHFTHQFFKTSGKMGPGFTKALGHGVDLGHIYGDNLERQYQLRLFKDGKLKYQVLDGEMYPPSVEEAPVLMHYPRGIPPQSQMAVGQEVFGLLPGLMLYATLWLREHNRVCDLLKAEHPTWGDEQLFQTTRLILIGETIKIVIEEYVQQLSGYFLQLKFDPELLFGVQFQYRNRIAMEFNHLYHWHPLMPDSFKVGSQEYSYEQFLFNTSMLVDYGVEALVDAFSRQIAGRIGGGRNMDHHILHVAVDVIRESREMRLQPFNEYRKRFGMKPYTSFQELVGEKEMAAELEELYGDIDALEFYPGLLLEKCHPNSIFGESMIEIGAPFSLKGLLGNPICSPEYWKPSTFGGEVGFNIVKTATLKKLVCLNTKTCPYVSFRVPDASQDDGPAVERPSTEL
Readout type: IC50

sample_smiles=CC(C)(C(=O)O)c1ccc(-c2ccccc2)c(F)c1 measured_result="> 100 µM"

---

experiment: Clearance in dog at 2 mg/kg, iv; type: ADME, organism-based, Canis lupus familiaris; design: dose 2 mg/kg, route intravenous; conditions: in vivo
Readout type: clearance (mL/min/kg)

sample_smiles=CC(C)(C(=O)O)c1ccc(-c2ccccc2)c(F)c1 scale_unit=mL/min/kg measured_result=0.28

---

assay: Ratio of drug level in brain against plasma in mice at 50 mg/kg, po; assay type: ADME, organism-based; parameters: dose 50 mg/kg, route oral; conditions: mouse, brain and plasma, read-out: BBR
Readout type: Kp

compound="COc1ccc2c(c1)c(CC(=O)O)c(C)n2C(=O)c1ccc(Cl)cc1 [INDOMETHACIN]" measured_result=0.01
compound="C[C@@H](C(=O)O)c1ccc(-c2ccccc2)c(F)c1 [TARENFLURBIL]" measured_result=0.04
compound="CC(C)Cc1ccc(C(C)C(=O)O)cc1 (centres undefined) [IBUPROFEN]" measured_result=0.03
compound=CC(C)(C(=O)O)c1ccc(-c2ccccc2)c(F)c1 measured_result=0.02
compound="CSc1ccc(/C=C2/C(C)=C(CC(=O)O)c3cc(F)ccc32)cc1 [SULINDAC SULFIDE]" measured_result=0.006
compound="CC(=O)Nc1ccc(O)cc1 [ACETAMINOPHEN]" measured_result=0.68
compound="COc1ccc2cc([C@H](C)C(=O)O)ccc2c1 [NAPROXEN]" measured_result=0.03
compound="Cc1cccc(Nc2ccccc2C(=O)O)c1C [MEFENAMIC ACID]" measured_result=0.03
compound="CC(C(=O)O)c1cccc(Oc2ccccc2)c1 (centres undefined) [FENOPROFEN]" measured_result=0.03
